# Test system: Trypanosoma brucei brucei
# test name: Antitrypanosomal activity against blood stream form of Trypanosoma brucei brucei S427 trypomastigotes overexpressing NTR assessed as inhibition of parasite growth
# Assay type: functional, organism-based
Assign pEC50 to each entry below.
Note on pEC50: it is the negative log10 of concentration, concentration in mol/L.

Identify pEC50 associated with the compound O=c1[nH]c2c([N+](=O)[O-])cc(Br)cc2cc1Cl
7.70

For the compound O=C(O)c1ccc(-c2cc3cccc([N+](=O)[O-])c3[nH]c2=O)cc1 , report pEC50.
5.38

For CC1CS(=O)(=O)CCN1/N=C/c1ccc([N+](=O)[O-])o1 (stereo unspecified) , write its pEC50.
6.22

In one line, give reported pEC50 of the entry O=C(O)c1ccc(-c2cc3cc(Br)cc([N+](=O)[O-])c3[nH]c2=O)cc1 .
7.00

Return pEC50 for the following compound: O=c1[nH]c2c([N+](=O)[O-])cc(C(F)(F)F)cc2cc1Br
6.05

Give the reported value of pEC50 for this record: O=c1[nH]c2c([N+](=O)[O-])cccc2cc1Br
5.41

====

# test name: Permeability of the compound in pH 7.4 Prisma HT buffer at 100 uM incubated for 4 hrs by PAMPA-BBB assay method
# Type: ADME
# run conditions: read-out: permeability
attribute measured: Papp at 4 h, 100 µM

Tell me Papp at 4 h, 100 µM reported for O=c1[nH]c2c([N+](=O)[O-])cc(Br)cc2cc1Cl
40.5 ×10⁻⁶ cm/s

Look up and report measured Papp at 4 h, 100 µM for this entry: O=C(O)c1ccc(-c2cc3cc(Br)cc([N+](=O)[O-])c3[nH]c2=O)cc1
1.27 ×10⁻⁶ cm/s

Note Papp at 4 h, 100 µM for the compound shown: O=c1[nH]c2c([N+](=O)[O-])cc(C(F)(F)F)cc2cc1Br
45 ×10⁻⁶ cm/s

====

# test name: Half life in NMRI mouse at 25 mg/Kg, ig measured up to 24 hrs by LCMS analysis
# Assay type: ADME
# run conditions: in vivo, po
attribute measured: half-life (min)
Just the number please, in min, no unit attached.

For CSc1ccc(OCc2ncc([N+](=O)[O-])n2C)cc1 , write its half-life.
48
